Target: human Siglec-7 expressed on human cells (primary monocytes, dendritic cells, macrophages, NK cells, … (human, UniProt Q9Y286 19-467))
Sequence (Q9Y286 19-467): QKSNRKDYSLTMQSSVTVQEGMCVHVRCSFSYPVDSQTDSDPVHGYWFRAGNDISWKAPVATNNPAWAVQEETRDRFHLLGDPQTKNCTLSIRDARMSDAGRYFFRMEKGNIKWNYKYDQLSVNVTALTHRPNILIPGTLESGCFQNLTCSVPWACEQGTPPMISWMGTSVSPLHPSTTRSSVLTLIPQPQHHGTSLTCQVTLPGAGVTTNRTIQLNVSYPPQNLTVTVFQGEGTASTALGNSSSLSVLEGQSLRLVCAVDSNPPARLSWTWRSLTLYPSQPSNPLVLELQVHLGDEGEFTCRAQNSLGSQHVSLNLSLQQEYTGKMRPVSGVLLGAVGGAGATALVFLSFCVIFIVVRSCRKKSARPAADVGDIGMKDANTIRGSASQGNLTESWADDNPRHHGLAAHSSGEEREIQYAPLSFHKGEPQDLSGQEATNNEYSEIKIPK
Experiment: cell-based or functional assay
observation.type: Percent Siglec-7 Surface Expression, DCs (%)

{"binder": "anti-Siglec-7 antibody 1A12 (antibody, V domains shown, also called 1Al2) VH: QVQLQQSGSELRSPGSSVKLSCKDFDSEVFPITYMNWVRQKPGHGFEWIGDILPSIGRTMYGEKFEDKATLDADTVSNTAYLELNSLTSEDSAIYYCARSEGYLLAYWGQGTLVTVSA VL: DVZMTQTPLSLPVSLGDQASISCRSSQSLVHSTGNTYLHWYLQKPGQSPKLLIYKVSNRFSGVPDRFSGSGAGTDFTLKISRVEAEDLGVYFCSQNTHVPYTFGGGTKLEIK", "observation.type": "Percent Siglec-7 Surface Expression, DCs", "observed.value": 100}
{"binder": "anti-Siglec-7 antibody 3E11 (antibody, V domains shown, Variable domains assembled from FR and CDR entries) VH: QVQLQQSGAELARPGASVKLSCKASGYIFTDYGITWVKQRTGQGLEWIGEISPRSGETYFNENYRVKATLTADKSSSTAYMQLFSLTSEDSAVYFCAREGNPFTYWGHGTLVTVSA VL: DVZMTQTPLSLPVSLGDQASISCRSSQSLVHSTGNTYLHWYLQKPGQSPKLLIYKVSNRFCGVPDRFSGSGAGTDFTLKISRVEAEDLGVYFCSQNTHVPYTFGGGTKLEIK", "observation.type": "Percent Siglec-7 Surface Expression, DCs", "observed.value": 19.9}
{"binder": "anti-Siglec-7 antibody 4D7 (antibody, V domains shown, Variable domains assembled from FR and CDR entries) VH: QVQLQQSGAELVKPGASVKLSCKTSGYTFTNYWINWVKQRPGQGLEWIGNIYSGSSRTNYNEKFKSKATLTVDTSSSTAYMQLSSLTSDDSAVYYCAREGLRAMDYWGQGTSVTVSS VL: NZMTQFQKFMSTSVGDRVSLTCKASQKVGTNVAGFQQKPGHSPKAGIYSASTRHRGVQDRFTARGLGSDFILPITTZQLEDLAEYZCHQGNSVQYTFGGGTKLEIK", "observation.type": "Percent Siglec-7 Surface Expression, DCs", "observed.value": 73.3}
{"binder": "anti-Siglec-7 antibody 7E11 (antibody, V domains shown, Variable domains assembled from FR and CDR entries) VH: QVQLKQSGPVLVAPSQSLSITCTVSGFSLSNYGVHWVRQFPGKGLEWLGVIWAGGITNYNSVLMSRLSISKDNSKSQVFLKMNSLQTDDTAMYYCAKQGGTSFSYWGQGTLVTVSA VL: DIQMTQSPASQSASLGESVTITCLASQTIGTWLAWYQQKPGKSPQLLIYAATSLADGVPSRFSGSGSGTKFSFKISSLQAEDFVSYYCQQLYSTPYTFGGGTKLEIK", "observation.type": "Percent Siglec-7 Surface Expression, DCs", "observed.value": 19.3}
{"binder": "anti-Siglec-7 antibody 4E3 (antibody, V domains shown, VL FR1 there holds a Z); also called S7-4E3; mAb S7-4E3) VH: EVQLVESGGALVKPGGSLKISCAVSGFIFSNYDMSWVRQNPEKRLEWVATISSGGGYTYYPDSVKGRFTISRDNAKNALYLQMSSLRSEDTALYYCTRHGYGNYDWYFDVWGAGATVTVSS VL: QIVLTQSPAILSASPGEKVTMTCSANSSFTYMYWYQQKPGSSPRLLIFDTSNLASGVPIRFSGSGSGTSYSLTISRMEAEDTATYYCQQWSSSPLTFGAGTKLELK", "observation.type": "Percent Siglec-7 Surface Expression, DCs", "observed.value": 11.2}
